assay: Solubility screening of Compound 1 in various solvents/solvent systems; format: physicochemical; settings: pH 6.5, aqueous with cosolvent or surfactant or cyclodextrin, PEG 400/PB (30:70, vol:vol) + 10% poloxamer 407; PB = Phosphate buffer 10 mmol/L pH 6.5; read-out: Determined Solubility
MEASURED_PARAMETER: solubility (µg/mL)
Hi! Could you send only the number? It should be in µg/mL, unit omitted.

// query Any idea what its solubility is? The molecule is `CCCOc1ccc(S(=O)(=O)N2CCC(CCO[N+](=O)[O-])CC2)cc1-c1nn2c(CCC)c(/C=N/O)c(C)c2c(=O)[nH]1`
// result 54
